# assay.notes: folding enthalpy; higher = less favourable; fluorescence melt of hairpins on a sequencing array, two-state fit
# stated.conditions: sodium 0.088 M
parameter.measured: folding enthalpy
Write your answer as a measured quantity: the number, then the unit.

Known results for sequences:
> print(dat)
                         sequence.string  observed.measurement
1  GGACCTGGAAACAGGTCC (((((((....)))))))        -28.2 kcal/mol
2  GGGCGCGAAAGCGGACCC ((((((....)))..)))        -12.8 kcal/mol
3  GGACACGGAAACACGTCC ((((..(....)..))))        -21.8 kcal/mol
4  GCCGCGGCGAAAGCCGGC (((..(((....))))))        -7.85 kcal/mol
5      GATTACGAAAGTAATC ((((((....))))))          -40 kcal/mol
6    GTACAACGAAAGTTTAC (((.(((....))))))        -11.5 kcal/mol
7  GTACACGAAAGTGATTAC ((((((....)))..)))        -14.6 kcal/mol
8  GTCCCATCGAAAGATGAC (((..(((....))))))          -12 kcal/mol

Looking up GCCCAGCGAAAGCTCAGC ((..(((....)))..)) , I found its folding enthalpy recorded as -8.74 kcal/mol

Looking up GATCTGCAGGCAGATC ((((((....)))))) , I found its folding enthalpy recorded as -32.7 kcal/mol

Looking up GAACCGGGAAACCGATTC (((.(((....))).))) , I found its folding enthalpy recorded as -26.4 kcal/mol

Looking up GTCGCTGGAAACGGTGAC (((.(.(....).).))) , I found its folding enthalpy recorded as -28.6 kcal/mol

====

# assay.notes: folding enthalpy; higher = less favourable; fluorescence melt of hairpins on a sequencing array, two-state fit
# stated.conditions: sodium 0.088 M
parameter.measured: folding enthalpy (kcal/mol)
Please state the figure in kcal/mol; there is no need to write the unit.

Known results for sequences:
> print(dat)
                         sequence.string  parameter.measured  observed.measurement
1      GATCTCCATCGAGATC ((((((....))))))    folding enthalpy                 -34.4
2      GATCGAGGCCTCGATC ((((((....))))))    folding enthalpy                 -49.1
3  GTGCGACGAAAGTCTCAC (((.(((....))).)))    folding enthalpy                 -41.1
4  CGGTCACGGAAACGTCCG (((..(((....))))))    folding enthalpy                 -10.3
5  GTTCGAGGAAACTCGGAC ((.((((....)))).))    folding enthalpy                 -40.9

Looking up GTAGACGAAAGTCGGTAC ((((((....)))..))) , I found its folding enthalpy recorded as -11.8

Looking up GCGTGGCCGAAAGGCCGC (((..(((....)))))) , I found its folding enthalpy recorded as -9.18

Looking up GTGTAGCGAAAGCTTCAC (((.(((....))).))) , I found its folding enthalpy recorded as -32

====

# assay.notes: folding enthalpy; higher = less favourable; fluorescence melt of hairpins on a sequencing array, two-state fit
# stated.conditions: sodium 0.088 M
parameter.measured: folding enthalpy
Write your answer as a measured quantity: the number, then the unit.

Known results for sequences:
> print(dat)
                         sequence.string  parameter.measured  observed.measurement
1  GGTTACGAAAGTATAACC ((((((....)))..)))    folding enthalpy          -20 kcal/mol
2      GATCAGCCGGCTGATC ((((((....))))))    folding enthalpy          -48 kcal/mol
3  GAACGCGGAAACACGTCC (.(((.(....).))).)    folding enthalpy        -20.1 kcal/mol

Looking up GATCGAGCCCTCGATC ((((((....)))))) , I found its folding enthalpy recorded as -42.1 kcal/mol

Looking up GTACTGACGAAAGTCTAC (((..(((....)))))) , I found its folding enthalpy recorded as -6.65 kcal/mol

Looking up GACCTGGGAAACCGGGTC ((((.((....)).)))) , I found its folding enthalpy recorded as -44.8 kcal/mol

Looking up GCCACGCGAAAGCTGGGC (((..((....))..))) , I found its folding enthalpy recorded as -27 kcal/mol

Looking up GGAGCCCCGAAAGGGTCC (((..(((....)))))) , I found its folding enthalpy recorded as -20.4 kcal/mol

Looking up CGTAAACGGAAACGTACG (((..(((....)))))) , I found its folding enthalpy recorded as -23.5 kcal/mol

Looking up GCTGGAGGAAACTCCGGC ((.((((....)))).)) , I found its folding enthalpy recorded as -40.4 kcal/mol

Looking up GGATCCACGAAAGTGTCC (((..(((....)))))) , I found its folding enthalpy recorded as -12.4 kcal/mol

Looking up GGATATCGAAAGATTTCC (((.(((....))).))) , I found its folding enthalpy recorded as -30.9 kcal/mol

====

The sequences listed here are annotated with their Tm.
# assay.notes: melting temperature; fluorescence melt of hairpins on a sequencing array, two-state fit, raised by 9.35 °C to match UV melts
# stated.conditions: sodium 0.088 M
Please state the figure in °C; there is no need to write the unit.

Known results for sequences:
> print(dat)
                         sequence.string  unit.abbreviation  observed.measurement
1  GGCCGTTCGAAAGAAGCC (((..(((....))))))                 °C                  27.6
2  GGCGTGGGAAACCGCGTC (.((.((....)).)).)                 °C                  52.2
3      GATCGGTGTTCCGATC ((((((....))))))                 °C                  58.6
4  GGGGGTACGAAAGTACCC (((..(((....))))))                 °C                  63.4
5  GGGTCGGGAAACCGGCTC (.(.(((....))).).)                 °C                  47.9

Moving on to another sequence below.
Looking up GTGGGCGAAAGCCATCAC ((((((....)))..))) , I found its Tm recorded as 39.7

====

# assay.notes: folding enthalpy; higher = less favourable; fluorescence melt of hairpins on a sequencing array, two-state fit
# stated.conditions: sodium 0.088 M
We use -30 kcal/mol as the dividing line for folding enthalpy: on or above the line is true (1), below is false (0).

Example entries begin here.
> print(dat)
                          sequence.string  classification
 1  GTTCCACGAAAGTGTAAC (((.(((....))).)))        true (1)
 2      GATCGTAAGTACGATC ((((((....))))))       false (0)
 3  GTTGCTGGAAACAGTGAC ((..(((....)))..))        true (1)
 4  GCCAGGACGAAAGTCGGC (((..(((....))))))        true (1)
 5  GTTATACGAAAGTACAAC (((.(((....))).)))        true (1)
 6  GACCCGCGAAAGCGCGTC (((.(((....))).)))        true (1)
 7              GCGGCGCTCCGC ((((....))))        true (1)
 8  GAAGCCGGAAACGGTTTC (((.(((....))).)))       false (0)
 9      GATCCGCGCTCGGATC ((((((....))))))       false (0)
10    GCCCCCGAAAGGGCGGC ((((((....))).)))        true (1)

Item GTGTACCGAAAGGTCCAC (((.(((....))).))) with folding enthalpy of -30 kcal/mol or above?
false (0)

Item GGCAAGTCGAAAGACGCC (((..(((....)))))) with folding enthalpy of -30 kcal/mol or above?
true (1)

Item GGGTAACGAAAGTTTCCC (((.(((....))).))) with folding enthalpy of -30 kcal/mol or above?
false (0)

Item GGTTTAGGAAACTGAACC ((((.((....)).)))) with folding enthalpy of -30 kcal/mol or above?
false (0)

Item GAAGGAGGAAACTCTTTC (((.(((....))).))) with folding enthalpy of -30 kcal/mol or above?
true (1)
